PROTOCOL TEXT: yeast display, Sf9 membrane polyspecificity reagent, FACS + sequencing; frameworks hold sequencing errors
PARAMETER: polyreactivity (PSR sort gate)

Consider the worked cases shown below.
BIOSEQUENCE	polyreactivity (PSR sort gate)
QVQLVESGGGLVPARGSLRLSCAASGFTFYRYAMGCYRQAPGKERELVAAITSRSGITYYADSVKGRFTISRDNAKNTVYLQMNSLKPEDTAVYYCAAYVYRSTEFDYGYWGQGTQVTVSS	high polyreactivity
QVQLVESGGGLVQAGGSLRLSCAASGITFSDNTMGWYRQAPGKERELVAAISWRGGLTYYADSVKGRFTISRDNAKNTVYLQMNSVKPEDTAVYYCIAVTSSKARYSSYDYWGQGTQVTVSS	high polyreactivity
QVQLVESGGGLVQAGGSLRLSCAASGFTFYDYAMGWYRQAPGKQREFVAAITWSGSSTYYADSVKGRFTISRDNAMNTVYLQMKSMKPEDTEVYYCAVGPFRRRGHYPTYYRYGYWGQGTEVTVSS	high polyreactivity
QVQLVESGGGLVQAGGSLRLSCAASGRTFTTNAMGWYRQAPGKERELVAGISYSTGRTYYADSVKGRFTISRDNAKNTVYLQMNSLKPEDTAVYYCAAYTRGYRGYYYWGQGTQVTVSS	high polyreactivity
QVQLVESGGGLVQAGGSLRLSCAASGTFFIYAMGWYRPAPGKERELVDTISTGGSTNYADSVKGRFTISRDNAKNTVYLQMNSLKPEDTAVYSCAAEWLYPHDGGYPRPMDYWGQGTQVTVSS	low polyreactivity
QVQLVESGGGLVQAGGSLRLSCAASGRTFYSYTMGWYRQAPGKERELVAAINRGGSTYYADSVKWRFTISRDNAKNTVYLQMNSLKPEDTAVYYCNADNWVYLYDYWGQGTQVTVSS	low polyreactivity
QVQLVESGGGLVQAGGSLRLSCAASGYIFRYNAMGWYRQAPGKEREFVASISQRGGSTYYADSVKGRFTISRDNAKNTVYLQMNSLKPEDTAVYYCAARLGYYSYEYNYWGQGTQVTVSS	high polyreactivity
QVQLVESRGGLVQAGGSLRLSCAASGSTFSPYVMGWYREAPGKERELFAAIRGRGGNTYYADSVKGRFTISRDNAKNTVYLQMNSLKPEDSAVYYCAAQSFAQYGWRYGDWGQVTQVTVSS	high polyreactivity

Using known records, supply polyreactivity (PSR sort gate) for QVQHVDSGGGIVQAGGSLRLSCAPSGRTILRYTMGWYRHAPGKERELVASITRGGSSYYADSVKGRFTISRDNAKNTVYLQMNSLKPEDTAVYYCAARRYYGVYYAFYYWGQGTQVTVSS
high polyreactivity

Report polyreactivity (PSR sort gate) for QVQLVESGGGLVQAGGSLRLSCAASGYIFIVNAMGWYRQAPGKERELVAAINSSGGNTYYADSVKGRFTISRDNAKNTVYLLMNSLKPEDTAVYYCAADQAKDISVEYDYWGQGTQVTVSS
low polyreactivity
